tested on: NCI-H2122; test: combination cScore with sotorasib (Bliss gap around IC50) (%PoC); higher = stronger additive effect
readout.kind: combination cScore with sotorasib

CN(C)C/C=C/C(=O)Nc1cc2c(Nc3ccc(F)c(Cl)c3)ncnc2cc1O[C@H]1CCOC1 [Afatinib] + C=CC(=O)N1CCN(c2nc(=O)n(-c3c(C)ccnc3C(C)C)c3nc(-c4c(O)cccc4F)c(F)cc23)[C@@H](C)C1
22.8

Missing value: combination cScore with sotorasib, NCI-H2122, entry CN(C)CCCC(=O)Nc1n[nH]c2nnc(-c3ccccc3)cc12 + C=CC(=O)N1CCN(c2nc(=O)n(-c3c(C)ccnc3C(C)C)c3nc(-c4c(O)cccc4F)c(F)cc23)[C@@H](C)C1 . Fill in? -11.8

Subsequent entry: O=c1[nH]cc(F)c(=O)[nH]1 [Fluorouracil (5-FU)] + C=CC(=O)N1CCN(c2nc(=O)n(-c3c(C)ccnc3C(C)C)c3nc(-c4c(O)cccc4F)c(F)cc23)[C@@H](C)C1 2.26

Subsequent entry: Cc1nc(Nc2n[nH]c3c2CN(C(=O)N[C@H](CN(C)C)c2ccccc2)C3(C)C)c2sccc2n1 + C=CC(=O)N1CCN(c2nc(=O)n(-c3c(C)ccnc3C(C)C)c3nc(-c4c(O)cccc4F)c(F)cc23)[C@@H](C)C1 17.5

Subsequent entry: CO[C@H]1/C=C/C[C@H](C)[C@@H](C)S(=O)(=O)NC(=O)c2ccc3c(c2)N(C[C@@H]2CC[C@H]21)C[C@@]1(CCCc2cc(Cl)ccc21)CO3 [AMG176] + C=CC(=O)N1CCN(c2nc(=O)n(-c3c(C)ccnc3C(C)C)c3nc(-c4c(O)cccc4F)c(F)cc23)[C@@H](C)C1 17.3

Subsequent entry: CNC(=O)c1cc(Oc2ccc(NC(=O)Nc3ccc(Cl)c(C(F)(F)F)c3)cc2)ccn1 [Sorafenib] + C=CC(=O)N1CCN(c2nc(=O)n(-c3c(C)ccnc3C(C)C)c3nc(-c4c(O)cccc4F)c(F)cc23)[C@@H](C)C1 4.75

Subsequent entry: CCNC(=O)C[C@@H]1N=C(c2ccc(Cl)cc2)c2cc(OC)ccc2-n2c(C)nnc21 [iBET-762] + C=CC(=O)N1CCN(c2nc(=O)n(-c3c(C)ccnc3C(C)C)c3nc(-c4c(O)cccc4F)c(F)cc23)[C@@H](C)C1 22.3

Subsequent entry: C[C@H](NC(=O)c1c(N)nn2cccnc12)c1cc2cccc(C#Cc3cnn(C)c3)c2c(=O)n1-c1ccccc1 [IPI-549] + C=CC(=O)N1CCN(c2nc(=O)n(-c3c(C)ccnc3C(C)C)c3nc(-c4c(O)cccc4F)c(F)cc23)[C@@H](C)C1 15.1

###

system: NCI-H2122; test: relative IC50 of cell viability (CellTiter-Glo); higher = less potent
# T = relative IC50 of cell viability below 300 nM (exclusive); F = relative IC50 of cell viability at/above 300 nM

CCc1cccc(CC)c1NC(=O)c1nn(C)c2c1CCc1cnc(Nc3ccc(C(=O)NC4CCN(C)CC4)cc3OC(F)(F)F)nc1-2 [NMS-P715] (top concentration tested 10000 nM)
F

In the following, a different compound is considered.
Does this compound meet the criterion relative IC50 of cell viability < 300 nM? O=C(O)CNC(=O)c1c(O)c2ccccc2n(Cc2ccccc2)c1=O [IOX2] (top concentration tested 50000 nM) F

###

test system: NCI-H2122; assay: combination cScore with sotorasib (Bliss gap around IC50) (%PoC); higher = stronger additive effect
Property: combination cScore with sotorasib; scope: individual molecules
Reply with the value as a number alone.

Example results:
CCOC(=O)CCNc1cc(N2CCc3ccccc3CC2)nc(-c2ccccn2)n1 [GSK-J4] + C=CC(=O)N1CCN(c2nc(=O)n(-c3c(C)ccnc3C(C)C)c3nc(-c4c(O)cccc4F)c(F)cc23)[C@@H](C)C1
-0.59
CCc1nc(N)nc(N)c1-c1ccc(Cl)cc1 [Pyrimethamine] + C=CC(=O)N1CCN(c2nc(=O)n(-c3c(C)ccnc3C(C)C)c3nc(-c4c(O)cccc4F)c(F)cc23)[C@@H](C)C1
5.47

Please find the next molecule below.
Which combination cScore with sotorasib value is on record for c1ccc(-c2nn3c(c2-c2ccnc4cc(OCCN5CCOCC5)ccc24)CCC3)nc1 + C=CC(=O)N1CCN(c2nc(=O)n(-c3c(C)ccnc3C(C)C)c3nc(-c4c(O)cccc4F)c(F)cc23)[C@@H](C)C1 ? 8.94

###

tested on: NCI-H2122; assay: combination cScore with adagrasib (Bliss gap around IC50) (%PoC); higher = stronger additive effect
readout.kind: combination cScore with adagrasib
Reply with the value as a number alone.

Nc1ncn([C@@H]2O[C@H](CO)[C@@H](O)[C@H]2O)c(=O)n1 [Azacitidine] + C=C(F)C(=O)N1CCN(c2nc(OC[C@@H]3CCCN3C)nc3c2CCN(c2cccc4cccc(Cl)c24)C3)C[C@@H]1CC#N
-1.39

Which combination cScore with adagrasib value is on record for C=CC(=O)N1CCC[C@@H](n2nc(-c3ccc(Oc4ccccc4)cc3)c3c(N)ncnc32)C1 [Ibrutinib] + C=C(F)C(=O)N1CCN(c2nc(OC[C@@H]3CCCN3C)nc3c2CCN(c2cccc4cccc(Cl)c24)C3)C[C@@H]1CC#N ? 26.9

Subsequent entry: Nc1nc(F)nc2c1ncn2[C@@H]1O[C@H](CO)[C@@H](O)[C@@H]1O [Fludarabine] + C=C(F)C(=O)N1CCN(c2nc(OC[C@@H]3CCCN3C)nc3c2CCN(c2cccc4cccc(Cl)c24)C3)C[C@@H]1CC#N -6.95

Subsequent entry: CC(C)(C)c1ccc(S(=O)(=O)NCc2ccc(C(=O)Nc3cccnc3)cc2)cc1 [STF-31] + C=C(F)C(=O)N1CCN(c2nc(OC[C@@H]3CCCN3C)nc3c2CCN(c2cccc4cccc(Cl)c24)C3)C[C@@H]1CC#N -2.08

Subsequent entry: Cc1nc(-c2cn3c(n2)-c2ccc(-c4cnn(C(C)(C)C(N)=O)c4)cc2OCC3)n(C(C)C)n1 [Taselisib] + C=C(F)C(=O)N1CCN(c2nc(OC[C@@H]3CCCN3C)nc3c2CCN(c2cccc4cccc(Cl)c24)C3)C[C@@H]1CC#N 18.1

Subsequent entry: Nc1ccn([C@@H]2O[C@H](CO)[C@@H](O)[C@@H]2O)c(=O)n1 [Cytarabin] + C=C(F)C(=O)N1CCN(c2nc(OC[C@@H]3CCCN3C)nc3c2CCN(c2cccc4cccc(Cl)c24)C3)C[C@@H]1CC#N -0.23

Subsequent entry: COc1ccc(Cn2ccc3ccc(C(=O)NO)cc32)cc1 + C=C(F)C(=O)N1CCN(c2nc(OC[C@@H]3CCCN3C)nc3c2CCN(c2cccc4cccc(Cl)c24)C3)C[C@@H]1CC#N 2.01

Subsequent entry: COc1ncc(-c2ccc3nccc(-c4ccnnc4)c3c2)cc1NS(=O)(=O)c1ccc(F)cc1F + C=C(F)C(=O)N1CCN(c2nc(OC[C@@H]3CCCN3C)nc3c2CCN(c2cccc4cccc(Cl)c24)C3)C[C@@H]1CC#N 23.1

Subsequent entry: CC(=O)Nc1cccc(-n2c(=O)n(C3CC3)c(=O)c3c(Nc4ccc(I)cc4F)n(C)c(=O)c(C)c32)c1 [Trametinib] + C=C(F)C(=O)N1CCN(c2nc(OC[C@@H]3CCCN3C)nc3c2CCN(c2cccc4cccc(Cl)c24)C3)C[C@@H]1CC#N 6.74

###

test system: NCI-H2122; test: combination cScore with sotorasib (Bliss gap around IC50) (%PoC); higher = stronger additive effect
readout.kind: combination cScore with sotorasib
Reply with the value as a number alone.

Example results:
O=C(O)C1(C(=O)O)CCC1.[NH2-].[NH2-].[Pt+2] [Carboplatin] + C=CC(=O)N1CCN(c2nc(=O)n(-c3c(C)ccnc3C(C)C)c3nc(-c4c(O)cccc4F)c(F)cc23)[C@@H](C)C1 [sotorasib]
11.6
C/C=C1\NC(=O)[C@H]2CSSCC/C=C/[C@H](CC(=O)N[C@H](C(C)C)C(=O)N2)OC(=O)[C@H](C(C)C)NC1=O [Romidepsin] + C=CC(=O)N1CCN(c2nc(=O)n(-c3c(C)ccnc3C(C)C)c3nc(-c4c(O)cccc4F)c(F)cc23)[C@@H](C)C1 [sotorasib]
5.9
Cn1c(=O)n(-c2ccc(C(C)(C)C#N)cc2)c2c3cc(-c4cnc5ccccc5c4)ccc3ncc21 [NVP-BEZ235] + C=CC(=O)N1CCN(c2nc(=O)n(-c3c(C)ccnc3C(C)C)c3nc(-c4c(O)cccc4F)c(F)cc23)[C@@H](C)C1 [sotorasib]
12
COc1ccc(Cn2ccc3ccc(C(=O)NO)cc32)cc1 + C=CC(=O)N1CCN(c2nc(=O)n(-c3c(C)ccnc3C(C)C)c3nc(-c4c(O)cccc4F)c(F)cc23)[C@@H](C)C1 [sotorasib]
0.89
N#CC[C@H](C1CCCC1)n1cc(-c2ncnc3[nH]ccc23)cn1 [Ruxolitinib] + C=CC(=O)N1CCN(c2nc(=O)n(-c3c(C)ccnc3C(C)C)c3nc(-c4c(O)cccc4F)c(F)cc23)[C@@H](C)C1 [sotorasib]
4.05
CNC(=O)c1ccc(N2C(=S)N(c3ccc(C#N)c(C(F)(F)F)c3)C(=O)C2(C)C)cc1F [Enzalutamide] + C=CC(=O)N1CCN(c2nc(=O)n(-c3c(C)ccnc3C(C)C)c3nc(-c4c(O)cccc4F)c(F)cc23)[C@@H](C)C1 [sotorasib]
6.62
Cc1nc(-c2cn3c(n2)-c2ccc(-c4cnn(C(C)(C)C(N)=O)c4)cc2OCC3)n(C(C)C)n1 [Taselisib] + C=CC(=O)N1CCN(c2nc(=O)n(-c3c(C)ccnc3C(C)C)c3nc(-c4c(O)cccc4F)c(F)cc23)[C@@H](C)C1 [sotorasib]
25.3
NC(=O)c1cnc(N[C@@H]2CCCC[C@@H]2N)nc1Nc1cccc(-n2nccn2)c1 + C=CC(=O)N1CCN(c2nc(=O)n(-c3c(C)ccnc3C(C)C)c3nc(-c4c(O)cccc4F)c(F)cc23)[C@@H](C)C1 [sotorasib]
7.42

Please find the next molecule below.
Which combination cScore with sotorasib value is on record for On1ncc2cc(CCc3nn[nH]n3)ccc21 + C=CC(=O)N1CCN(c2nc(=O)n(-c3c(C)ccnc3C(C)C)c3nc(-c4c(O)cccc4F)c(F)cc23)[C@@H](C)C1 [sotorasib] ? -2.12

meta.source: the supplement of paper PMC11424490
